# target.under.test: T1, cMet-Fc fusion protein (extracellular domain of the cMet receptor expressed as an Fc-fusion protein) (human, UniProt P08581 25-932)
# T1 construct: extracellular domain; also called soluble cMet-Fc-fusion protein; soluble cMet receptor; not shown: Fc part
# protocol.description: phage ELISA on cMet-Fc, competitor HGF 100 ng/mL
Reported % of binding in the absence of HGF is given for each of the following binders.
Form entry: value (%) — number only.

Field % of binding in the absence of HGF (entry AGYYGCKGPPTFECQWMGT [330-F05 peptide-displaying phage (SEQ ID NO: 049)] ) reads 51

Field % of binding in the absence of HGF (entry AQWNQWDEFMWFLNPPPIGLMW [151-B08 peptide-displaying phage (SEQ ID NO: 480)] ) reads 102

Field % of binding in the absence of HGF (entry AGSIQCKGPPWFSCAMYGT [325-H05 peptide-displaying phage (SEQ ID NO: 048)] ) reads 41
